Measured IC50 at 72 h, listed per entry for reference.
experimental_details: Cytotoxicity against human MRC5 cells assessed as inhibition of cell growth incubated for 72 hrs by SRB assay
Assay type: toxicity, cell-based

Take a look at these entries with their results.
CN1c2ccccc2C(=O)N2CCc3c(n(C(=O)c4ccccc4)c4ccccc34)[C@H]21
> 50 µM
CCCn1c2c(c3ccccc31)CCN1C(=O)c3ccccc3N(C)[C@H]21
> 50 µM
CC(=O)Oc1ccc2[nH]c3c(c2c1)CCN1C(=O)c2cccc(C)c2N(C)[C@H]31
< 0.4 µM

Record Cc1ccc2[nH]c3c(c2c1)CCN1C(=O)c2ccccc2N(C)[C@H]31 , field IC50 at 72 h: > 50 µM

// IC50 at 72 h lookup, compound = CN1c2ccccc2C(=O)N2CCc3c([nH]c4ccc(OCc5ccccc5)cc34)[C@H]21 , result: > 50 µM

====

experimental_details: Cytotoxicity against HPDE6c7 cells assessed as inhibition of cell growth incubated for 72 hrs by SRB assay
Type: toxicity, cell-based
condition_description: human
Friendly reminder: IC50 at 72 h below 100 nM is yes, at or above is no.

Q) hey, is IC50 at 72 h for CN1c2ccccc2C(=O)N2CCc3c([nH]c4c([N+](=O)[O-])cc([N+](=O)[O-])cc34)[C@H]21 lower than 100 nM or not?
A) yes

====

Below, each of the compounds is paired with its reported IC50 at 72 h value.
experimental_details: Cytotoxicity against human MRC5 cells assessed as inhibition of cell growth incubated for 72 hrs by SRB assay
Assay type: toxicity, cell-based

Consider the following illustrative entries.
COc1cccc2c1C(=O)N1CCc3c([nH]c4ccccc34)[C@H]1N2C
12.7 µM
Cc1cccc2c1N(C)[C@@H]1c3[nH]c4ccccc4c3CCN1C2=O
< 0.4 µM
CC(=O)Oc1ccc2[nH]c3c(c2c1)CCN1C(=O)c2ccccc2N(C)[C@H]31
> 50 µM
CN1c2ccccc2C(=O)N2CCc3c([nH]c4ccc(Cl)cc34)[C@H]21
9.42 µM
C=CCOc1ccc2[nH]c3c(c2c1)CCN1C(=O)c2ccccc2N(C)[C@H]31
> 50 µM
Cc1ccc(CN2c3ccccc3C(=O)N3CCc4c([nH]c5ccccc45)[C@H]32)cc1
> 50 µM

Turning to the following compound.
What the record says about COc1ccc2c(c1)C(=O)N1CCc3c([nH]c4ccccc34)[C@H]1N2C : IC50 at 72 h is 3.33 µM

====

tested_system: Protein kinase C beta type (Homo sapiens, UniProt P05771)
Sequence (P05771 whole entry): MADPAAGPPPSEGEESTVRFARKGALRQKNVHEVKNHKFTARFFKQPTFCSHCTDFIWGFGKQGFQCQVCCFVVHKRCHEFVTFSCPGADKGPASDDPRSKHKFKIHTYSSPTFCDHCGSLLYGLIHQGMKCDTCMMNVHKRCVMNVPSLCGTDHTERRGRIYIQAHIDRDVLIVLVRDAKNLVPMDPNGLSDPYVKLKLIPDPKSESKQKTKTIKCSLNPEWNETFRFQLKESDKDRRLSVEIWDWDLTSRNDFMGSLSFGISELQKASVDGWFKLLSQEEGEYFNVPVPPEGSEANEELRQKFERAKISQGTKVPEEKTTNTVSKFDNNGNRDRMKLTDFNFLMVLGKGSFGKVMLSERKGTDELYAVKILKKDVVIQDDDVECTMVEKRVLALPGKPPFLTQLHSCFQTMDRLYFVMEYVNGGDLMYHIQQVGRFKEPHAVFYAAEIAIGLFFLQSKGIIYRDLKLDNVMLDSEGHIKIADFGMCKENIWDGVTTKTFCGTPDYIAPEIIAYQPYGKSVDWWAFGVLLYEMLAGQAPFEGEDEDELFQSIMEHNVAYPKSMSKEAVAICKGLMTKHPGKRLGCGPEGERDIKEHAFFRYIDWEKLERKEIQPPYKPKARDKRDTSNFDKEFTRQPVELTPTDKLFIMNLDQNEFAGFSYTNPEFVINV
experimental_details: Inhibition of recombinant full length N-terminal GST-tagged human PKCbeta1 expressed in baculovirus infected Sf9 insect cells using ERMRPRKRQGSVRRRV as substrate incubated for 60 mins in presence of ATP by ADP-glo reagent based luminometric analysis
# IC50 per record follows
Write the number in nM without appending the unit.

CN1c2ccccc2C(=O)N2CCc3c([nH]c4ccccc34)[C@H]21
151

Kindly review the next compound as well.
Briefly, IC50 measured for CC(=O)Oc1ccc2[nH]c3c(c2c1)CCN1C(=O)c2ccccc2N(C)[C@H]31 : 117

====

experimental_details: Cytotoxicity against human MRC5 cells assessed as inhibition of cell growth incubated for 72 hrs by SRB assay
Format: toxicity, cell-based
Below, each entry is listed alongside its reported IC50 at 72 h.

CN1c2ccccc2C(=O)N2CCc3c(n(Cc4ccccc4)c4ccccc34)[C@H]21
33.7 µM
CN1c2ccccc2C(=O)N2CCc3c([nH]c4ccc(O)cc34)[C@H]21
> 50 µM
CN1c2ccccc2C(=O)N2CCc3c([nH]c4ccc(OC(=O)c5ccccc5)cc34)[C@H]21
> 50 µM
C#CCOc1ccc2[nH]c3c(c2c1)CCN1C(=O)c2ccccc2N(C)[C@H]31
> 50 µM
CN1c2cc(Cl)ccc2C(=O)N2CCc3c([nH]c4ccccc34)[C@H]21
> 50 µM

# IC50 at 72 h of COc1cc([C@@H]2c3cc4c(cc3[C@@H](O[C@@H]3O[C@@H]5CO[C@@H](C)O[C@H]5[C@H](O)[C@H]3O)[C@H]3COC(=O)[C@H]23)OCO4)cc(OC)c1O [ETOPOSIDE] = > 20 µM

====

experimental_details: Cytotoxicity against HPDE6c7 cells assessed as inhibition of cell growth incubated for 72 hrs by SRB assay
Type: toxicity, cell-based
condition_description: human
readout: IC50 at 72 h (nM)
// note: answer is a bare numeric in nM

The following molecules have reported results that may help.
CC(=O)Oc1ccc2[nH]c3c(c2c1)CCN1C(=O)c2ccccc2N(C)[C@H]31
2950
Nc1ccn([C@@H]2O[C@H](CO)[C@@H](O)C2(F)F)c(=O)n1
40
Cn1cc(C2=C(c3cn(C4CCN(Cc5ccccn5)CC4)c4ccccc34)C(=O)NC2=O)c2ccccc21
1330
CN1c2ccccc2C(=O)N2CCc3c([nH]c4ccc(OC(=O)c5ccccc5)cc34)[C@H]21
140

Now consider a different molecule.
# IC50 at 72 h of CN1c2ccccc2C(=O)N2CCc3c([nH]c4ccc(O)cc34)[C@H]21 = 170

====

The entries below come with measured IC50 at 72 h values attached.
experimental_details: Cytotoxicity against human MRC5 cells assessed as inhibition of cell growth incubated for 72 hrs by SRB assay
Format: toxicity, cell-based

CN1c2ccc(F)cc2C(=O)N2CCc3c([nH]c4ccccc34)[C@H]21
< 0.4 µM
CN1c2ccc(Br)cc2C(=O)N2CCc3c([nH]c4ccccc34)[C@H]21
3.06 µM
CN1c2ccc(Cl)cc2C(=O)N2CCc3c([nH]c4ccccc34)[C@H]21
1.03 µM
CN1c2ccccc2C(=O)N2CCc3c([nH]c4ccc(F)cc34)[C@H]21
4.71 µM
CCCOc1ccc2[nH]c3c(c2c1)CCN1C(=O)c2ccccc2N(C)[C@H]31
> 50 µM

The recorded IC50 at 72 h for CN1c2ccccc2C(=O)N2CCc3c([nH]c4c([N+](=O)[O-])cc([N+](=O)[O-])cc34)[C@H]21 is > 50 µM

According to the records, this compound O=C1c2ccccc2N(Cc2ccccc2)[C@@H]2c3[nH]c4ccccc4c3CCN12 displays IC50 at 72 h of > 50 µM

Kindly note the recorded IC50 at 72 h for CN1c2ccccc2C(=O)N2CCc3c(n(C)c4ccccc34)[C@H]21 , which is > 50 µM

Briefly, IC50 at 72 h measured for CCCCCCn1c2c(c3ccccc31)CCN1C(=O)c3ccccc3N(C)[C@H]21 : 37.6 µM

Consider COc1ccc(Cn2c3c(c4ccccc42)CCN2C(=O)c4ccccc4N(C)[C@H]32)cc1 . Its measured IC50 at 72 h is > 50 µM

Query CCCN1c2ccccc2C(=O)N2CCc3c([nH]c4ccccc34)[C@H]21 yields IC50 at 72 h of < 0.4 µM

====

experimental_details: Cytotoxicity against human MRC5 cells assessed as inhibition of cell growth incubated for 72 hrs by SRB assay
Format: toxicity, cell-based
readout: IC50 at 72 h (µM)
# unit: µM | format: bare number

Cc1ccc2c(c1)C(=O)N1CCc3c([nH]c4ccccc34)[C@H]1N2C
7.36

Given item O=C1c2ccccc2N(Cc2ccc(C(F)(F)F)cc2)[C@@H]2c3[nH]c4ccccc4c3CCN12 , the value recorded as its IC50 at 72 h is 50
